# ASSAY TARGET: T1, MBP-fused PDZ domain 1 of PDZRN4 (human, UniProt Q6ZMN7 224-314)
# T1 sequence (looked up): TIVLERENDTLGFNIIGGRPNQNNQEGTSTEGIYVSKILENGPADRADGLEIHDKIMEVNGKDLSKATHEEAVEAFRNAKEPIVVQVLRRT
# PROTOCOL SUMMARY: SPR
Where no end group is shown, it is not given here. [ ]: non-standard residue; d: D form. The star is where a group is joined. Biotin = O=C1N[C@H]2[C@H](CS[C@H]2CCCCC(=O)*)N1; TTDS = NCCCOCCOCCOCCCNC(=O)CCC(=O)*; pS = N[C@@H](COP(=O)(O)O)C(=O)O
MEASURED ATTRIBUTE: pKd
Scale: negative log10 of molar concentration, which is what pKd denotes.

Query :: Fill in pKd for record {Biotin-TTDS}-RRVRKLP[pS]TTL (peptide, UniProt Q15418 725-735, looked up) [biotinylated RSK1 725-735 peptide, phosphorylated at Ser732 (position -3)]
Result :: 5.15

Query :: Fill in pKd for record {Biotin-TTDS}-RRVRKLPSTTL (peptide, UniProt Q15418 725-735, looked up) [biotinylated RSK1 725-735 peptide, unphosphorylated]
Result :: 6.01
